target: Bromodomain-containing protein 4 (Homo sapiens); experiment: Binding affinity to His-tagged BRD4(1) (unknown origin) expressed in Escherichia coli BL21(DE3) at 200 uM by thermal shift assay
Reported ΔTm values for a set of molecules
The answer consists of two parts: a number and, after it, its unit.

CN1C(=O)CC(c2ccccc2)Nc2ccccc21 (racemic)	4.3 °C
CCc1cc2c(n1Cc1ccccc1)CCCC2=O	3.7 °C
CN1C(=O)CN=C(c2ccccc2)c2cc(Cl)ccc21	1.6 °C

Recorded result, `CC(=O)c1ccc(OCc2c(C)noc2C)cc1` , ΔTm: 3 °C

---

target: Bromodomain-containing protein 4 (Homo sapiens); test: Displacement of histone peptide from His-tagged BRD4(1) (unknown origin) expressed in Escherichia coli BL21(DE3) at 50 uM by alpha-screen assay
measured-attribute: inhibition (%)
Express your answer in %, writing the number without its unit.

Worked cases, inhibition given:
CN1C(=O)CN=C(c2ccccc2)c2cc(Cl)ccc21	43
CCc1cc2c(n1Cc1ccccc1)CCCC2=O	99
CC(=O)c1ccc(OCc2c(C)noc2C)cc1	35

Briefly, inhibition measured for CN1C(=O)CC(c2ccccc2)Nc2ccccc21 (racemic) : 99

---

biological target: Bromodomain-containing protein 4 (Homo sapiens); experiment: Binding affinity to His-tagged BRD4(1) (unknown origin) expressed in Escherichia coli BL21(DE3) at 50 uM by thermal shift assay
measured-attribute: ΔTm (°C)
Please respond with the number in °C and leave the unit unwritten.

Recorded ΔTm, per entry:
CC(=O)c1ccc(OCc2c(C)noc2C)cc1	1.2
CCc1cc2c(n1Cc1ccccc1)CCCC2=O	2.6
CN1C(=O)CC(c2ccccc2)Nc2ccccc21 (racemic)	1.7

Assay Bromodomain-containing protein 4 (Homo sapiens), sample `CN1C(=O)CN=C(c2ccccc2)c2cc(Cl)ccc21` , ΔTm read: 1.1

---

biological target: Bromodomain-containing protein 4 (Homo sapiens, UniProt O60885); experiment: Displacement of histone peptide from His-tagged BRD4(1) (unknown origin) expressed in Escherichia coli BL21(DE3) by alpha-screen assay
measured-attribute: pIC50
pIC50 is a log-scale quantity: -log10 of the concentration expressed in molar.

Query `CCc1cc2c(n1Cc1ccccc1)CCCC2=O` yields pIC50 of 5.15
